- Test system: UO-31 renal
- METHOD_NOTES: NCI tumour cell line growth inhibition, 48 h
List of TGI values.
PROPERTY_NAME: TGI (µM)

- COMPOUND: "CC1(C)CCc2ccc(OCCC(=O)O)cc2O1"
  TEST_SYSTEM: "UO-31 renal"
  OUTPUT_UNIT: "µM"
  INEQUALITY_SIGN: ">"
  READOUT_VALUE: 100
- COMPOUND: "O=C1N(C2CCCCC2)C(=O)N1C1CCCCC1"
  TEST_SYSTEM: "UO-31 renal"
  OUTPUT_UNIT: "µM"
  INEQUALITY_SIGN: "="
  READOUT_VALUE: 0.199
- COMPOUND: "COc1ccc2nc3cc(Cl)ccc3c(Sc3ccccc3[N+](=O)[O-])c2c1"
  TEST_SYSTEM: "UO-31 renal"
  OUTPUT_UNIT: "µM"
  INEQUALITY_SIGN: ">"
  READOUT_VALUE: 100
- COMPOUND: "COC(=O)NC(Nc1ccccn1)(C(F)(F)F)C(F)(F)F"
  TEST_SYSTEM: "UO-31 renal"
  OUTPUT_UNIT: "µM"
  INEQUALITY_SIGN: ">"
  READOUT_VALUE: 100
- COMPOUND: "NC1CCC(Nc2nc(NCc3ccc(-c4ccco4)nc3)c3ncn(C4CCCC4)c3n2)CC1 (stereo unspecified)"
  TEST_SYSTEM: "UO-31 renal"
  OUTPUT_UNIT: "µM"
  INEQUALITY_SIGN: "="
  READOUT_VALUE: 0.747
- COMPOUND: "Cc1ccc(Nc2nc(=O)c3c4ccccc4n(C(=O)OC(C)(C)C)c3s2)cc1"
  TEST_SYSTEM: "UO-31 renal"
  OUTPUT_UNIT: "µM"
  INEQUALITY_SIGN: "="
  READOUT_VALUE: 22.8
- COMPOUND: "COc1ccccc1NC(=O)CC(=O)n1nc(C)c(N=Nc2ccccc2C(=O)O)c1C"
  TEST_SYSTEM: "UO-31 renal"
  OUTPUT_UNIT: "µM"
  INEQUALITY_SIGN: ">"
  READOUT_VALUE: 100
- COMPOUND: "COc1ccc(NC(=O)c2cc(OC)cc(OC)c2)cc1"
  TEST_SYSTEM: "UO-31 renal"
  OUTPUT_UNIT: "µM"
  INEQUALITY_SIGN: ">"
  READOUT_VALUE: 100
- COMPOUND: "S=c1nc2sc3c(c2c(Nc2ccc(Cl)cc2)[nH]1)CCCC3"
  TEST_SYSTEM: "UO-31 renal"
  OUTPUT_UNIT: "µM"
  INEQUALITY_SIGN: ">"
  READOUT_VALUE: 100
- COMPOUND: "CN(C)CCCNC1=C(Cl)C(=O)c2ccccc2C1=O"
  TEST_SYSTEM: "UO-31 renal"
  OUTPUT_UNIT: "µM"
  INEQUALITY_SIGN: "="
  READOUT_VALUE: 27
- COMPOUND: "O=[N+]([O-])c1cccc2nc3ccccc3c(NCCCCNc3c4ccccc4nc4cccc([N+](=O)[O-])c34)c12"
  TEST_SYSTEM: "UO-31 renal"
  OUTPUT_UNIT: "µM"
  INEQUALITY_SIGN: "="
  READOUT_VALUE: 0.398

====

- Tested on: A498 renal
- METHOD_NOTES: NCI tumour cell line growth inhibition, 48 h
PROPERTY_NAME: TGI

- MOLECULE: "COc1cc2c(cc1OC)[C@@H]1[C@H](C#N)C(=O)C(C)(C)N1CC2"
  PROPERTY_NAME: "TGI"
  READOUT_VALUE: "> 100 µM"
- MOLECULE: "C1=CC2C=CC(C=C1)P2c1ccccc1 (stereo unspecified)"
  PROPERTY_NAME: "TGI"
  READOUT_VALUE: "> 100 µM"
- MOLECULE: "Cc1ccc2c(c1)[nH]c(=S)n2C=C(C(N)=O)C(N)=O"
  PROPERTY_NAME: "TGI"
  READOUT_VALUE: "> 100 µM"
- MOLECULE: "Cc1cccc2oc3c(CC(=O)O)cccc3c(=O)c12"
  PROPERTY_NAME: "TGI"
  READOUT_VALUE: "> 100 µM"
- MOLECULE: "O=C(Nc1ccc(I)cc1)c1cc([N+](=O)[O-])ccc1O"
  PROPERTY_NAME: "TGI"
  READOUT_VALUE: "5.17 µM"
- MOLECULE: "CC(=O)Oc1c(C)c2c(c3ncccc13)OC(C)C2 (stereo unspecified)"
  PROPERTY_NAME: "TGI"
  READOUT_VALUE: "58.3 µM"
- MOLECULE: "Nn1c(CCCCCCCCc2nnc(COc3ccc(Cl)cc3Cl)n2N)nnc1COc1ccc(Cl)cc1Cl"
  PROPERTY_NAME: "TGI"
  READOUT_VALUE: "> 100 µM"
- MOLECULE: "COc1ccc(C2=CSc3cc(Cl)c(C)cc3S(=O)(=O)N2C(C)=O)cc1"
  PROPERTY_NAME: "TGI"
  READOUT_VALUE: "> 100 µM"
- MOLECULE: "C=C(C)[C@@H]1CCC2=C[C@@H](OC2=O)[C@@H](C(=C)C)C2=CC(C(=O)O)=C(C1)O2"
  PROPERTY_NAME: "TGI"
  READOUT_VALUE: "> 100 µM"
- MOLECULE: "N=C(N)c1ccc(/C=C/c2ccc(C(=N)N)cc2)cc1"
  PROPERTY_NAME: "TGI"
  READOUT_VALUE: "73.7 µM"
- MOLECULE: "Oc1ccc(Cl)cc1-c1cc(-c2ccccc2Cl)[nH]n1"
  PROPERTY_NAME: "TGI"
  READOUT_VALUE: "> 100 µM"

====

- Tested on: K-562 leukemia
- METHOD_NOTES: NCI tumour cell line growth inhibition, 48 h; in the data active means GI50 below about 0.43 µM; inactive means the rest
Outcome codes: TRUE for active, FALSE for inactive

- MOLECULE: "COc1cc(C(=O)/C=C/c2sc(Cl)nc2Cl)cc(OC)c1OC"
  TEST_SYSTEM: "K-562 leukemia"
  LABEL_VALUE: "FALSE"
- MOLECULE: "CCCCCCCCSC1=CC(=O)c2nc3ccccc3c3ccnc1c23"
  TEST_SYSTEM: "K-562 leukemia"
  LABEL_VALUE: "FALSE"
- MOLECULE: "CCOc1ccccc1-n1c(CN2CCN(C(=O)COc3ccc(CNCCCCCCN4C5CCCC4CC(OC(=O)Nc4cc(C)ccc4OC)C5)cc3)CC2)nc2ccccc2c1=O (stereo not drawn)"
  TEST_SYSTEM: "K-562 leukemia"
  LABEL_VALUE: "FALSE"
- MOLECULE: "Cc1cc(=O)n2[nH]c(-c3ccc(C(C)(C)C)cc3)cc2n1"
  TEST_SYSTEM: "K-562 leukemia"
  LABEL_VALUE: "FALSE"
- MOLECULE: "COc1ccc(-c2cc(-c3ccc(Nc4nc(Nc5ccccc5)nc(Nc5ccc(Cl)cc5)n4)cc3)nc(N)c2C#N)cc1"
  TEST_SYSTEM: "K-562 leukemia"
  LABEL_VALUE: "FALSE"
- MOLECULE: "O=C(CCl)N1c2ccccc2Oc2ccc3ccccc3c21"
  TEST_SYSTEM: "K-562 leukemia"
  LABEL_VALUE: "TRUE"
- MOLECULE: "O=C(CN1CCN(c2cc3c(cc2F)c(=O)c(C(=O)N/N=C/c2ccccc2O)cn3C2CC2)CC1)N/N=C\\c1ccccc1O"
  TEST_SYSTEM: "K-562 leukemia"
  LABEL_VALUE: "TRUE"
- MOLECULE: "O=C1NNC(=O)c2ccccc2SSc2ccccc2C(=O)NNC(=O)c2ccccc2SSc2ccccc21"
  TEST_SYSTEM: "K-562 leukemia"
  LABEL_VALUE: "FALSE"

====

- Test system: MOLT-4 leukemia
- METHOD_NOTES: NCI tumour cell line growth inhibition, 48 h
Below, each entry is listed with its recorded TGI.

- COMPOUND: "NC1CC(=O)c2cscc21 (stereo unspecified)"
  TEST_SYSTEM: "MOLT-4 leukemia"
  TGI: "> 100 µM"
- COMPOUND: "CCN(CC)c1ccc2cc(C(N)=O)c(=N)oc2c1"
  TEST_SYSTEM: "MOLT-4 leukemia"
  TGI: "> 100 µM"
- COMPOUND: "C/C(=C\\CO)CC/C=C(\\C)CNc1c(F)c(F)c(F)c(F)c1F"
  TEST_SYSTEM: "MOLT-4 leukemia"
  TGI: "> 100 µM"
- COMPOUND: "NC(CSC(c1ccccc1)(c1ccccc1)c1ccc2c(c1)OCO2)C(=O)O (stereo unspecified)"
  TEST_SYSTEM: "MOLT-4 leukemia"
  TGI: "17 µM"
- COMPOUND: "C=CCc1cc(OC)c2c(c1)C(O)CC(c1ccc(OC)c(OC)c1)O2 (stereo unspecified)"
  TEST_SYSTEM: "MOLT-4 leukemia"
  TGI: "> 100 µM"
- COMPOUND: "Cc1ccc(-c2nnc(-c3ccc4ccccc4c3)o2)cc1"
  TEST_SYSTEM: "MOLT-4 leukemia"
  TGI: "> 26.6 µM"

# credit: PubChem BioAssay (NCI)
